# tgt: T1, hu-M-IL1RAP construct, positions S21-T367 (extracellular domain of the membrane form of human IL1RAP) (human, UniProt Q9NPH3 21-367)
# T1 construct: Biotinylated when captured on the Biacore chip
# T1 sequence: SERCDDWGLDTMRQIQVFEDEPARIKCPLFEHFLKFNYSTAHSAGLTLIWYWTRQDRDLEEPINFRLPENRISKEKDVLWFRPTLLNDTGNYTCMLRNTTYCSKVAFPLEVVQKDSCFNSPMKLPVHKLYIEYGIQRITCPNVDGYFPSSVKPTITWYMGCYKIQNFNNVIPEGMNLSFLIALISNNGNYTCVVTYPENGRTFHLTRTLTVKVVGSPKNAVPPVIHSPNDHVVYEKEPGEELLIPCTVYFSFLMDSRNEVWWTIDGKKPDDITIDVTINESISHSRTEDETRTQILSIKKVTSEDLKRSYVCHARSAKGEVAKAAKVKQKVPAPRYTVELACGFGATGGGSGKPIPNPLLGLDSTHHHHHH
# experimentDescription: SPR, Fab analyte, 25 C
Please go through the items and note down their pKd.
One number for each entry, as −log10 of the molar value.

binder: H5 Fab (VH V51S/G54H) (Fab, V domains shown, Fab with 8xHis tag) VH: EVQLVESGGGLVQPGGSLRLSCAASGFTFSNYAMSWVRQAPGKGLEWVATSTEGHDYNYYLDDVKGRFTISRDNAKNSLYLQMNSLRAEDTAVYYCARDRWPYFFDYWGQGTLVTVSS VL: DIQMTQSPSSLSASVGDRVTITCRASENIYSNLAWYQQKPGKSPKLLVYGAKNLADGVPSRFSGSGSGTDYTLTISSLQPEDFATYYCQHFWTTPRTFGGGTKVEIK
pKd: 10.30

Okay, here is my list. What is pKd for each of these?
1. H2 Fab (VH R96D) (Fab, V domains shown, Fab with 8xHis tag) VH: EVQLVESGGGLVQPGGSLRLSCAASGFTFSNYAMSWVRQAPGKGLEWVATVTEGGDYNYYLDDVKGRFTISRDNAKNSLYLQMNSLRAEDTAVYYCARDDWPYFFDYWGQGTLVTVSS VL: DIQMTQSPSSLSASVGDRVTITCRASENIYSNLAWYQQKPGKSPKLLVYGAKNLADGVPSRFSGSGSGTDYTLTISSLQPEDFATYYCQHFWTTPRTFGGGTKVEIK
2. K10 Fab (VL A51Y) (Fab, V domains shown, Fab with 8xHis tag) VH: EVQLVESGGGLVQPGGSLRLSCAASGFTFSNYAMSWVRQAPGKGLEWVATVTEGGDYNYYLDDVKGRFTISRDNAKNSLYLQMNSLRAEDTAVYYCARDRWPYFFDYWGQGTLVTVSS VL: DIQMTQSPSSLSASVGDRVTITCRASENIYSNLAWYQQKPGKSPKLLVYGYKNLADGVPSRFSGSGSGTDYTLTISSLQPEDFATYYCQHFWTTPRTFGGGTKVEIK

RESULT:
1. 10.37
2. 11.07

Reference source: patent US20260015426A1
